Reference source: paper PMC9476189

- testedSystem: urease (Canavalia ensiformis)
- Sequence (P07374 whole entry, looked up): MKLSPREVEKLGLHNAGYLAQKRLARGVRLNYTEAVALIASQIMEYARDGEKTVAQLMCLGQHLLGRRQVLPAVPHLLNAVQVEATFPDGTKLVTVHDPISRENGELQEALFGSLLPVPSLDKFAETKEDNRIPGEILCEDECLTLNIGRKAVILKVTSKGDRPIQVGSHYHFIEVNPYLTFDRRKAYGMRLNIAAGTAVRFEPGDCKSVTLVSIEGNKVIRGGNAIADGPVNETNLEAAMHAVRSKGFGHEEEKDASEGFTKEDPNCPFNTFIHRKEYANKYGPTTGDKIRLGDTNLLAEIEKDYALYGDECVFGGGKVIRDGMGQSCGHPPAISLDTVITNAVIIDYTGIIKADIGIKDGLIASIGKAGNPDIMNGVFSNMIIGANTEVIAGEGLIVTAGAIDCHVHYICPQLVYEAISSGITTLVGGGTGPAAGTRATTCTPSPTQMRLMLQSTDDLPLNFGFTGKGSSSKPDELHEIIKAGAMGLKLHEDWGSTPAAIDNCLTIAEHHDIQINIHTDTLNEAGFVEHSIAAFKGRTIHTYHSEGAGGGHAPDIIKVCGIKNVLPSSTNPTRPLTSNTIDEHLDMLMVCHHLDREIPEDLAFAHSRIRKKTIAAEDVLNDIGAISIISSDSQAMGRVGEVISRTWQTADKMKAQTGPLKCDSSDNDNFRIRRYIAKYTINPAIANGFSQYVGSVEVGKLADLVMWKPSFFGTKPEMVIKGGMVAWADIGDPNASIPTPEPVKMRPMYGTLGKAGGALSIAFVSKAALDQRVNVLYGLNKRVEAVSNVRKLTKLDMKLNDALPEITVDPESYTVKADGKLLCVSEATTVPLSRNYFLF
- conditions: 0.25 mM; mean ± SEM, triplicate
parameterMeasured: urease inhibition, inhibition (%) at 0.25 mM

{"compound": "COc1ccccc1NC(=O)CSc1nnc(C2CCN(S(=O)(=O)c3ccc(C)cc3)CC2)n1C [Compound 12g]", "unitDescriptor": "%", "observedResult": 42.87}
{"compound": "CCc1cccc(C)c1NC(=O)CSc1nnc(C2CCN(S(=O)(=O)c3ccc(C)cc3)CC2)n1C [Compound 12n]", "unitDescriptor": "%", "observedResult": 32.85}
{"compound": "Cc1ccc(S(=O)(=O)N2CCC(c3nnc(SCC(=O)NC4CCCCC4)n3C)CC2)cc1 [Compound 12a]", "unitDescriptor": "%", "observedResult": 25.34}
{"compound": "Cc1ccc(S(=O)(=O)N2CCC(c3nnc(SCC(=O)Nc4c(C)cccc4[N+](=O)[O-])n3C)CC2)cc1 [Compound 12o]", "unitDescriptor": "%", "observedResult": 56.35}

====

List of BChE inhibition, inhibition (%) at 0.5 mM values.
- testedSystem: UniProtKB P06276
- Sequence (P06276 29-602, species assumed): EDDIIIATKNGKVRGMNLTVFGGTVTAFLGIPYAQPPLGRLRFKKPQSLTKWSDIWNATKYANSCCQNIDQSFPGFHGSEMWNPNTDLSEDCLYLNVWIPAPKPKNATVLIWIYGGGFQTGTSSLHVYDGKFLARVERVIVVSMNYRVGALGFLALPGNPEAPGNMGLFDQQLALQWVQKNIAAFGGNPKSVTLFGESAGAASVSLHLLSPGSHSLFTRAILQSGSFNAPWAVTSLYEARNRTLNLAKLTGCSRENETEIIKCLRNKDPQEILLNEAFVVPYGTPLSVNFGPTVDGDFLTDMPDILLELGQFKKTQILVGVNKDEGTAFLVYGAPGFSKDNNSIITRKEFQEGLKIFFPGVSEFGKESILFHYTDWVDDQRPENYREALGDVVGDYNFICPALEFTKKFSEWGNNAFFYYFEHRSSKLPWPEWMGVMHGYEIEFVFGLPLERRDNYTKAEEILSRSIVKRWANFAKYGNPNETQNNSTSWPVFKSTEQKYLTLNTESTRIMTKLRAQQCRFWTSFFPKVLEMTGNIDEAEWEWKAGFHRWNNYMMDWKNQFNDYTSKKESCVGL
- conditions: 0.5 mM; mean ± SEM, triplicate
parameterMeasured: BChE inhibition, inhibition (%) at 0.5 mM

{"compound": "Cc1ccc(S(=O)(=O)N2CCC(c3nnc(SCC(=O)Nc4c(C)cccc4C)n3C)CC2)cc1 [Compound 12l]", "unitDescriptor": "%", "observedResult": 41.87}
{"compound": "Cc1ccc(S(=O)(=O)N2CCC(c3nnc(SCC(=O)Nc4ccc(C)cc4C)n3C)CC2)cc1 [Compound 12j]", "unitDescriptor": "%", "observedResult": 37.62}
{"compound": "CCc1cccc(C)c1NC(=O)CSc1nnc(C2CCN(S(=O)(=O)c3ccc(C)cc3)CC2)n1C [Compound 12n]", "unitDescriptor": "%", "observedResult": 36.24}
{"compound": "Cc1ccc(S(=O)(=O)N2CCC(c3nnc(SCC(=O)Nc4cc(C)cc(C)c4)n3C)CC2)cc1 [Compound 12m]", "unitDescriptor": "%", "observedResult": 91.25}
{"compound": "Cc1ccc(S(=O)(=O)N2CCC(c3nnc(SCC(=O)Nc4cccc(C)c4C)n3C)CC2)cc1 [Compound 12i]", "unitDescriptor": "%", "observedResult": 36.47}
{"compound": "Cc1ccc(S(=O)(=O)N2CCC(c3nnc(SCC(=O)Nc4ccccc4)n3C)CC2)cc1 [Compound 12b]", "unitDescriptor": "%", "observedResult": 63.42}
{"compound": "CCc1ccccc1NC(=O)CSc1nnc(C2CCN(S(=O)(=O)c3ccc(C)cc3)CC2)n1C [Compound 12f]", "unitDescriptor": "%", "observedResult": 39.78}
{"compound": "COc1ccccc1NC(=O)CSc1nnc(C2CCN(S(=O)(=O)c3ccc(C)cc3)CC2)n1C [Compound 12g]", "unitDescriptor": "%", "observedResult": 24.72}

====

- testedSystem: urease (Canavalia ensiformis)
- conditions: 0.25 mM; mean ± SEM, triplicate
parameterMeasured: urease inhibition, inhibition (%) at 0.25 mM

{"compound": "Cc1ccc(S(=O)(=O)N2CCC(c3nnc(SCC(=O)Nc4ccccc4C)n3C)CC2)cc1 [Compound 12c]", "testedSystem": "urease (Canavalia ensiformis)", "observedResult": 75.45}
{"compound": "CCc1ccccc1NC(=O)CSc1nnc(C2CCN(S(=O)(=O)c3ccc(C)cc3)CC2)n1C [Compound 12f]", "testedSystem": "urease (Canavalia ensiformis)", "observedResult": 36.35}
{"compound": "Cc1ccc(S(=O)(=O)N2CCC(c3nnc(SCC(=O)Nc4cc(C)cc(C)c4)n3C)CC2)cc1 [Compound 12m]", "testedSystem": "urease (Canavalia ensiformis)", "observedResult": 98.65}
